System: Ba/F3 KIF5B-RET (V804M) cells
Experiment: Cell proliferation inhibition, CellTiter-Glo
Type: cell-based
Conditions: Mus musculus, BaF3, 72 hours
measurement-label: log10 GI50 (log10 of the value in nM)
Could you please treat all values as log10 of GI50 in nM?

input: Can you share its log10 GI50? I mean this molecule: COc1ccc(CN2C[C@@H]3C[C@H]2CN3c2ccc(-c3nc(Nc4cc(C)[nH]n4)c4ccccc4n3)cn2)cn1 [Example 31]
output: 1.08

input: Can you share its log10 GI50? I mean this molecule: COc1ccc(CN2C[C@H]3C[C@@H]2CN3c2ccc(-c3nc(Nc4cc(C)[nH]n4)c4ccccc4n3)cn2)cn1 [Example 34]
output: 1.30

input: Can you share its log10 GI50? I mean this molecule: Cc1cc(Nc2nc(-c3ccc(N4CC5CC(C4)N5Cc4ccc(F)cc4)nc3)nc3ccccc23)n[nH]1 [Example 22]
output: 0.78

input: Can you share its log10 GI50? I mean this molecule: COc1ccc(CN2C3CC2CN(c2ccc(-c4nc(Nc5cc(C)[nH]n5)c5occc5n4)cn2)C3)cn1 [Example 1]
output: 1.28

input: Can you share its log10 GI50? I mean this molecule: COc1ccc(CN2C3CC2CN(c2ccc(-c4nc(Nc5cc(C)[nH]n5)c5ccccc5n4)cn2)C3)cc1C#N [Example 12]
output: 1.69

input: Can you share its log10 GI50? I mean this molecule: COc1ccc(CN2C[C@@H](C)N(c3ccc(-c4nc(Nc5cc(C)[nH]n5)c5ccccc5n4)cn3)C[C@@H]2C)cn1 [Example 32]
output: 2.38

input: Can you share its log10 GI50? I mean this molecule: Cc1cc(Nc2nc(-c3ccc(N4CC5CC(C4)N5Cc4ccc(NS(C)(=O)=O)cc4)nc3)nc3ccccc23)n[nH]1 [Example 21]
output: 2.07

input: Can you share its log10 GI50? I mean this molecule: COc1ncc(CN2C3CC2CN(c2ccc(-c4nc(Nc5cc(C)[nH]n5)c5ccccc5n4)cn2)C3)cc1Cl [Example 16]
output: 1.59

input: Can you share its log10 GI50? I mean this molecule: COc1ccc(CN2CCN(c3ccc(-c4nc(Nc5cc(C)[nH]n5)c5ccccc5n4)cn3)C[C@@H]2C)cn1 [Example 33]
output: 2.08

input: Can you share its log10 GI50? I mean this molecule: COc1ccc(CN2C3CC2CN(c2ccc(-c4nc5c(c(Nc6cc(C)[nH]n6)n4)CCC5)cn2)C3)cn1 [Example 7]
output: 0.85

input: Can you share its log10 GI50? I mean this molecule: Cc1cc(Nc2nc(-c3ccc(N4CC5CC(C4)N5Cc4ccc(N(C)C)nc4)nc3)nc3ccccc23)n[nH]1 [Example 20]
output: 0.78

input: Can you share its log10 GI50? I mean this molecule: Cc1ncc(CN2C3CC2CN(c2ccc(-c4nc(Nc5cc(C)[nH]n5)c5ccccc5n4)cn2)C3)cn1 [Example 25]
output: 1.32

input: Can you share its log10 GI50? I mean this molecule: Cc1cc(Nc2nc(-c3ccc(N4CC5CC(C4)N5Cc4cnc[nH]4)nc3)nc3ccccc23)n[nH]1 [Example 13]
output: 3.39

input: Can you share its log10 GI50? I mean this molecule: COc1ccc(CN2CC3CC(C2)N3c2ccc(-c3nc(Nc4cc(C)[nH]n4)c4ccccc4n3)cn2)cn1 [Example 6]
output: 1.85

Cited source for all entries: patent US12281121B2
